B1: PWWP2B (parent)
chain: TIRLRPRQVLCEKCKSTLSPPEAS

Variants of: B1
protocol.description: protein stability index of a GFP-peptide fusion (GPS, HEK-293T) (PSI 1-6); higher = more stable;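 also: lentivirally expressed fusions sorted by FACS into six bins by GFP to DsRed ratio, PSI derived from sequencing read proportions per bin multiplied by bin number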
test.parameters: c terminus: a fixed tail appended
endpoint.name: protein stability index
// print number alone

- variant.identifier: "A23I"
  protein stability index: 2.61
- variant.identifier: "C14Q"
  protein stability index: 4.05
- variant.identifier: "L18Y"
  protein stability index: 2.83
- variant.identifier: "S19T"
  protein stability index: 2.37
- variant.identifier: "K13P"
  protein stability index: 3.22
- variant.identifier: "R5L"
  protein stability index: 2.91

[ask] Recorded protein stability index for `C14G` , please?
[reply] 4.08

[ask] Recorded protein stability index for `L10G` , please?
[reply] 3.17

[ask] Recorded protein stability index for `P6S` , please?
[reply] 3.1
